experiment_summary: solubility in aqueous buffer
Assay type: physicochemical
condition_set: Tris-HCl pH 7.4, 75 mM NaCl; read-out: agent concentrations where the compounds are soluble
Bridge positions count the residues as written; N and C are the ends. Square brackets hold non-standard residues; d marks the D form. Peptide text beside a SMILES is read from it. I, II: the chains in the order shown. * marks the point of attachment. Quinaldoyl(3-OH) = O=C(c1nc2ccccc2cc1O)*; NMeC = CN[C@@H](CS)C(=O)O; NMeDha = C=C(NC)C(=O)O
outcome_measure: solubility

The compound C=C1C(=O)SC[C@@H](NC(=O)c2nc3ccccc3cc2O)C(=O)NCC(=O)N(C)[C@H]2CSSC[C@@H](C(=O)N1C)N(C)C(=O)CNC(=O)[C@H](NC(=O)c1nc3ccccc3cc1O)CSC(=O)C(=C)N(C)C2=O [BE-22179] (I: {Quinaldoyl(3-OH)}-[dC]G[NMeC][NMeDha] / II: {Quinaldoyl(3-OH)}-[dC]G[NMeC][NMeDha]; thioester I:1-II:C, I:C-II:1; disulfide I:3-II:3) showed solubility equal to 1 to 10 µM

* * *

Test system: L1210 cell line
experiment_summary: cytotoxic activity in the L1210 assays
condition_set: L1210 assays
Bridge positions count the residues as written; N and C are the ends. Square brackets hold non-standard residues; d marks the D form. Peptide text beside a SMILES is read from it. I, II: the chains in the order shown. * marks the point of attachment. Fmoc = O=C(OCC1c2ccccc2-c2ccccc21)*; NMeC = CN[C@@H](CS)C(=O)O; Cbz = O=C(OCc1ccccc1)*
outcome_measure: cytotoxic activity (in words)

- CSC[C@H]1C(=O)SC[C@@H](NC(=O)OCc2ccccc2)C(=O)NCC(=O)N(C)[C@H]2CSSC[C@@H](C(=O)N1C)N(C)C(=O)CNC(=O)[C@H](NC(=O)OCc1ccccc1)CSC(=O)[C@H](CSC)N(C)C2=O [Compound 23] (I: Cbz-[dC]G[NMeC][NMeC](Me) / II: Cbz-[dC]G[NMeC][NMeC](Me); thioester I:1-II:C, I:C-II:1; disulfide I:3-II:3): inactive
- CSC[C@H]1C(=O)SC[C@@H](NC(=O)OCC2c3ccccc3-c3ccccc32)C(=O)NCC(=O)N(C)[C@H]2CSSC[C@@H](C(=O)N1C)N(C)C(=O)CNC(=O)[C@H](NC(=O)OCC1c3ccccc3-c3ccccc31)CSC(=O)[C@H](CSC)N(C)C2=O [Compound 32] (I: Fmoc-[dC]G[NMeC][NMeC](Me) / II: Fmoc-[dC]G[NMeC][NMeC](Me); thioester I:1-II:C, I:C-II:1; disulfide I:3-II:3): inactive

* * *

experiment_summary: solubility in aqueous buffer
Format: physicochemical
condition_set: aqueous Tris-HCl buffer; Tris-HCl pH 7.4, 75 mM NaCl; read-out: agent concentrations where the compounds are soluble
Bridge positions count the residues as written; N and C are the ends. Square brackets hold non-standard residues; d marks the D form. Peptide text beside a SMILES is read from it. I, II: the chains in the order shown. * marks the point of attachment. Quinaldoyl(3-OH) = O=C(c1nc2ccccc2cc1O)*; NMeC = CN[C@@H](CS)C(=O)O
outcome_measure: solubility

The compound CSC[C@H]1C(=O)SC[C@@H](NC(=O)c2nc3ccccc3cc2O)C(=O)NCC(=O)N(C)[C@H]2CSSC[C@@H](C(=O)N1C)N(C)C(=O)CNC(=O)[C@H](NC(=O)c1nc3ccccc3cc1O)CSC(=O)[C@H](CSC)N(C)C2=O [Thiocoraline] (I: {Quinaldoyl(3-OH)}-[dC]G[NMeC][NMeC](Me) / II: {Quinaldoyl(3-OH)}-[dC]G[NMeC][NMeC](Me); thioester I:1-II:C, I:C-II:1; disulfide I:3-II:3) showed solubility equal to 1 to 10 µM
